# measured.on: MOD-1 channel (Caenorhabditis elegans, UniProt Q9GQ00)
# Sequence (Q9GQ00 whole entry, looked up): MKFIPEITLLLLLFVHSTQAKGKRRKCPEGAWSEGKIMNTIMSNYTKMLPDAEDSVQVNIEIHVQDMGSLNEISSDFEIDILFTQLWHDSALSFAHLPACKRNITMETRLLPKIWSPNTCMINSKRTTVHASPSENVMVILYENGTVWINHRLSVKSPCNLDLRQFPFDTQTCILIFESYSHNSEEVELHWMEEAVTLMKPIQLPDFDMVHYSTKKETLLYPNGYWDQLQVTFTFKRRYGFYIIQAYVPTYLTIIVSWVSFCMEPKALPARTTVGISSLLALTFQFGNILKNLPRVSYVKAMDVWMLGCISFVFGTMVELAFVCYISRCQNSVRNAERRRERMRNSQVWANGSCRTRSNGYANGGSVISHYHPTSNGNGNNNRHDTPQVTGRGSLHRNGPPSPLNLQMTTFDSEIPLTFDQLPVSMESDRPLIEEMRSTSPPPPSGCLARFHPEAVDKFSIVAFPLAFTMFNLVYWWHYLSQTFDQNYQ
# procedure.details: Voltage clamp of MOD-1 heterologously expressed in Xenopus oocytes or HEK cells
# settings: MOD-1 in oocytes; read-out: approximate Ki, inhibition of the MOD-1 channel
pKi: −log10 of the molar value.

{"molecule": "CSc1ccc2c(c1)C(N1CCN(C)CC1)Cc1ccccc1S2 (stereo not shown) [methiothepin]", "pKi": "~4.49"}
